experimental_target: GABA A α5 (Homo sapiens, UniProt P18507+P31644)
Construct: membranes prepared from cell pellets
assay_details: [3H]flumazenil competition binding, human GABA A α5β3γ2 receptors in HEK293 cell membranes
experimental_setup: human receptor α5β3γ2 transiently transfected in HEK293; 0.5 nM [3H]flumazenil; 1 hour at 4° C.; means of two determinations; read-out: hKi GABA A α5
pKi: −log10 of the molar value.
measured_attribute: pKi

A: Cc1onc(-c2ccc(F)cc2)c1/C=C/c1cc(C(N)=O)n(C)n1
B: CCCCc1noc(C)c1COc1cc(C(=O)NC(C)C)n(C)n1
Req: Which value of pKi is numerically greater: that of A or that of B ? Indicate your choice by writing its label.
Resp: A
(A: 8.82, B: 7.41)

1: Cc1onc(-c2ccc(F)cc2)c1CNc1cc(C(=O)NC(C)C)n(C)n1
2: Cc1onc(-c2ccc(F)cn2)c1COc1cc(C(=O)NN2CCCC2)[nH]n1
Req: Which value of pKi is numerically greater: that of 1 or that of 2 ? Indicate your choice by writing its label.
Resp: 2
